Listed molecules paired with reported IC50
# Measurement target: CLK2 (Homo sapiens, UniProt P49760)
# Sequence (P49760 whole entry): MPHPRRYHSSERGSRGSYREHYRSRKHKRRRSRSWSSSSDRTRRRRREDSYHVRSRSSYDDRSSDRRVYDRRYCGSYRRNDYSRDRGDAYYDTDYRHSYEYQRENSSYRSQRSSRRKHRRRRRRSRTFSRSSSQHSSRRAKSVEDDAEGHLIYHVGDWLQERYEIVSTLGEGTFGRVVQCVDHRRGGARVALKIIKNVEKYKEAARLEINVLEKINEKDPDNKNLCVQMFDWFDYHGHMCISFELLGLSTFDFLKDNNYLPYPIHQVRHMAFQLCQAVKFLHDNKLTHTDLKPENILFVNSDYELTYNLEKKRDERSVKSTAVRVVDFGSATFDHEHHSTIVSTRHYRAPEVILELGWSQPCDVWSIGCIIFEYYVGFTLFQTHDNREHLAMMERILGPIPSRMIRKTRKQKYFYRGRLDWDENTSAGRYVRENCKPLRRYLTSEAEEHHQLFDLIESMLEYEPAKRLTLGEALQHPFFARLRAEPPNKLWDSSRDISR
Measured parameter: IC50 (nM)

[[record]]
chemical_smiles = "COc1ccc2c(c1OC)c(=O)n1c3ccc(O)cc3c3ccnc2c31"
measurement_target = "CLK2 (Homo sapiens, UniProt P49760)"
units_text = "nM"
observed = 360

[[record]]
chemical_smiles = "COc1ccc2cc3c(N)nn(C(=O)c4cccc(N(C)C)c4)c3nc2c1"
measurement_target = "CLK2 (Homo sapiens, UniProt P49760)"
units_text = "nM"
observed = 1440


---

# Measurement target: PIP5K1A (Homo sapiens, UniProt Q99755)
# Construct: purchased Thermo Fisher Scientific
# Sequence (Q99755 whole entry): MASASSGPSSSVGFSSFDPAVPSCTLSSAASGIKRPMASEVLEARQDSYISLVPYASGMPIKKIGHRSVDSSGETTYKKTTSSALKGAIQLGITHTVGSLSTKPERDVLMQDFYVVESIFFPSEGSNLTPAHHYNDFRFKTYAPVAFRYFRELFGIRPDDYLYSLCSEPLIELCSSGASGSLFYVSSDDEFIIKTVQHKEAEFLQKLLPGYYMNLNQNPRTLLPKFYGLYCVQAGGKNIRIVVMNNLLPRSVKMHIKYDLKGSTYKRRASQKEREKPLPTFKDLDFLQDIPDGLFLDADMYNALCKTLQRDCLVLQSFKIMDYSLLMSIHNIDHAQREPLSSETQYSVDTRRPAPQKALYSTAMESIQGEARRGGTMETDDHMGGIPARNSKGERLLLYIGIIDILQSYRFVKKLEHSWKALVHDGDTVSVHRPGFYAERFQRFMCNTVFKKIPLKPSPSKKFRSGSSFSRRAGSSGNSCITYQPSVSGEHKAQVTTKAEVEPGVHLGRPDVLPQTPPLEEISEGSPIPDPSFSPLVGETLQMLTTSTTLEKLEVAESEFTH
# Experiment: Kinase panel study
# Assay type: biochemical
# Setup conditions: PIP5K1A; compound at 10µM; read-out: % of Inhibition
Listed compounds paired with reported inhibition at 10 µM
Measured parameter: inhibition at 10 µM

[[record]]
compound = "COc1ccc2c(c1)c1ccnc3c4nc(OC)ccc4c(=O)n2c13"
observed = "20%"

[[record]]
compound = "O=c1c2cc(O)ccc2c2nccc3c4cc(O)ccc4n1c32"
observed = "5%"

[[record]]
compound = "COc1ccc2nc3c(cc2c1)c(N)nn3C(=O)c1cccc(N(C)C)c1 [MW05-E2]"
observed = "-9%"

[[record]]
compound = "O=c1c2cnccc2c2nccc3c4cc(O)ccc4n1c32"
observed = "28%"

[[record]]
compound = "COc1ccc2c(c1)c1ccnc3c4ccnc(OC)c4c(=O)n2c13"
observed = "11%"

